System: PXR homodimer (NR concentration 270 nM)
Assay: PBM binding z-score (relative to random genomic background probes); higher = stronger binding; sequences stand for … in GC…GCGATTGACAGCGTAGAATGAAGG
Assay Metric: PBM binding z-score
Response field accepts a number only; no unit should be typed.

ACTATTAGTTGAGACGAGGGCAACAGATAGGTTG
0.384

Form field - read-out: PBM binding z-score; system: PXR homodimer (NR concentration 270 nM); submitted item: `ATCGAAAGGTCGAAGATGAGTATACCCACCCGAA` 0.241

Ok, now `CTCGAAAGGTCGTGCTCAGGTGAGTCTACCAAAC` 0.183

Check `CCTAGCTGGCCAGGGTCACTCAAGCATTTCGCTT` too. -0.342

Same thing, different sequence: `GTACCAAGGTTAATAGGTCGTTGATGAGTAGGCG` 0.273

Consider next the sequence `TAGCCTAGGACAGATCGGGCCAGTATACGCTATA` in the same way. -0.768

For `ACTAGCAGGCCAAGTTTGGGTGACTCAAACAAAG` then? -0.715

Next sequence: `ACTCGCAGGACAAAGGTCAGAGCTACGCCAGTGA` 0.075

---

Tested on: RARg:RXRa (NR concentration 270 nM, RXRa partner concentration 90 nM)
Experiment: PBM binding z-score (relative to random genomic background probes); higher = stronger binding; sequences stand for … in GC…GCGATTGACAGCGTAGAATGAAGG
PBM binding z-score class ranges: range A (below 2), range B (2 to below 4), range C (4 or more)

Study these solved cases before continuing.
TCTACAGGGTCAAAGGCCAGAGTACGAATGTCGA
range C
TAGCCTAGGTCATTCGGGGGCCAGTATAGAAAGC
range C
CAAACTGGGTCACGAAAGGTCAAAGTCGAATGAC
range C
GCAGACAGGTGAAACGCGGGTAACTCAGGGTGGC
range A
TTACCTAGGTGAAAGGTCGTTGATGCACGCCTTG
range B
TCGAGTAGGTTAGAGGCATTCAGAATGGCGTCGA
range A
CCTAGTTGCTCAAGGTCACACACGCTATAGGTAC
range C
CCTAGCAGGCCAATCTGCGTCACTCAAGGCTTGA
range A

Please report the category associated with `CCTACTGGGCCACGAAAGGTCATTGATTCAGTGA` , nothing else. range C

Proceed to `AGAATGAGGTTATACGTAGATCAGCGAAGAAAGT` range A

Then what about the sequence `ATTTCTAGGTAAAAGTTCAGTGAATCCCGAGGAT` ? range B

// repeat for `ATACCAAGGTAATCGTGAGGTCGTTGATACTAAC` and report range A

Field entry: `GTACGAAGGTGAATAGGTCGTTGATGAGTAGGCG` range B

Now the same for `TAGCCTAGGTCAGATCGGGCCACTATACGCTATA` range B

Similarly, `CCTACTGGGCCATTCAGAGGTCATTCATCATATG` ? range C

Same question, `TCTGGTAGATCAAGCAGGTTAAGAAAGCCTGAGT` this time range A

Query `TCTCGGAGGAGACGAAAGGTCAGAGCTCGACATC` next range B

Lookup `AGAATGAGGTTACCAAAGATCAGGGATACGCTTG` range B

Another: `CGAACTACGTCATTGACAGGACAGTGAATAGTAA` range A

What about this sequence? `TAGCCTAGGTCAGATCGGGCCATTATACGCTATA` range B

Now consider `GCTAGCAGGCCATATGGGTCACTCAATGACGGGC` . range A

Same lookup for `CGTCCAAGGTCAGAGATGTCAGTGAATGCCGAGT` , please. range C

Also, `ATACAAAGGTGATCGTGAGGTCGTTGATACTAAC` please. range B

Try this sequence too: `CAAACTAGGTCACCGGAAGGTCGAAGTCCGCATG` range C

Similarly, `TCTCGGAGGACACGAAGATCAGAGCTTTCCAGAG` ? range A

Then this sequence: `GATACAGGGTCAAGGCCATAGTACGCGTATTGAT` range C
